- System: 292921-168-R-J2-PDC KRAS tumor spheroid viability;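 also: drug exposure lasted seven days after spheroids formed for three days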
- measurement.description: Anticancer human tumor 292921-168-R-J2-PDC patient-derived pancreatic carcinoma cell line growth inhibition [KRAS2]
- assay.conditions: curve of first compound; second compound 0.1 µM; spheroids with HUVEC and MSC
Listed compounds paired with reported IC50

# compound, IC50
rows = [
    ("COC(=O)c1ccc2c(C(=Nc3ccc(N(C)C(=O)CN4CCN(C)CC4)cc3)c3ccccc3)c(O)[nH]c2c1 + CC1OCC2(CCN(c3cnc(Sc4ccnc(N)c4Cl)c(N)n3)CC2)C1N", "217 nM"),
    ("CC(C)NCC(C(=O)N1CCN(c2ncnc3c2C(C)CC3O)CC1)c1ccc(Cl)cc1 (stereo not given) + C=CC(=O)N1CCN(c2nc(OCC3CCCN3C)nc3c2CCN(c2cccc4cccc(C)c24)C3)CC1CC#N", "> 10000 nM"),
    ("COC(=O)c1ccc2c(C(=Nc3ccc(N(C)C(=O)CN4CCN(C)CC4)cc3)c3ccccc3)c(O)[nH]c2c1 + C=CC(=O)N1CCN(c2nc(OCC3CCCN3C)nc3c2CCN(c2cccc4cccc(C)c24)C3)CC1CC#N", "< 31.6 nM"),
    ("COc1cc(Nc2ncc3c(n2)-c2ccc(Cl)cc2C(c2c(F)cccc2OC)=NC3)ccc1C(=O)O + CNCc1ccccc1-c1csc(C(C)Nc2nc(C)nc3cc(OC)c(OC)cc23)c1", "< 31.6 nM"),
    ("CC(=O)OC12COC1CC(O)C1(C)C(=O)C(O)C3=C(C)C(OC(=O)C(O)C(NC(=O)OC(C)(C)C)c4ccccc4)CC(O)(C(OC(=O)c4ccccc4)C21)C3(C)C (stereo not given) + C=CC(=O)N1CCN(c2nc(OCC3CCCN3C)nc3c2CCN(c2cccc4cccc(C)c24)C3)CC1CC#N", "< 10 nM"),
]
